Exercise: state measured pKd for each of the molecules provided.
- target.desc: 18S ribosomal subunit RNA target
- test.description: Mass spectrometry based binding assay (FTICR), 18S
- condition.summary: FTICR mass spectrometry; Example 105
Numbers only, as −log10 of the molar value.

molecule="NCCCNCCOC1C(OC2C(O)C(N)CC(N)C2OC2OC(CO)C(O)C(O)C2N)OC(CO)C1O (stereo not shown) [Compound 30b]" target_desc="18S ribosomal subunit RNA target" measured_quantity=pKd reading=4.74
molecule="NCC1OC(OC2C(CO)OC(OC3C(O)C(N)CC(N)C3OC3OC(CO)C(O)C(O)C3N)C2OCCNCCc2cccnc2)C(N)C(O)C1O (stereo not shown)" target_desc="18S ribosomal subunit RNA target" measured_quantity=pKd reading=6.00
molecule="NCC1OC(OC2C(CO)OC(OC3C(O)C(N)CC(N)C3OC3OC(CO)C(O)C(O)C3N)C2OCCNCc2cccnc2)C(N)C(O)C1O (stereo not shown)" target_desc="18S ribosomal subunit RNA target" measured_quantity=pKd reading=5.03
molecule="NCC1OC(OC2C(CO)OC(OC3C(O)C(N)CC(N)C3OC3OC(CO)C(O)C(O)C3N)C2OCCNc2cnc3ccccc3c2)C(N)C(O)C1O (stereo not shown)" target_desc="18S ribosomal subunit RNA target" measured_quantity=pKd reading=6.05
molecule="NCC1OC(OC2C(CO)OC(OC3C(O)C(N)CC(N)C3OC3OC(CO)C(O)C(O)C3N)C2OCCNC2CCCCC2)C(N)C(O)C1O (stereo not shown)" target_desc="18S ribosomal subunit RNA target" measured_quantity=pKd reading=6.40
molecule="NCC1OC(OC2C(CO)OC(OC3C(O)C(N)CC(N)C3OC3OC(CO)C(O)C(O)C3N)C2OCCNCc2ccccc2)C(N)C(O)C1O (stereo not shown)" target_desc="18S ribosomal subunit RNA target" measured_quantity=pKd reading=6.52

# ---- query molecule ----
Returns the measured pKd for the input molecule. Input: NCCOC1C(OC2C(O)C(N)CC(N)C2OC2OC(CO)C(O)C(O)C2N)OC(CO)C1O (stereo not shown) [Compound 30a]
4.24
